Method notes: gradient 5% acetonitrile 3 min, to 50% in 2 min, to 85% in 15 min, held 3 min, 100 µL/min
Assay conditions: column: Zorbax Extend-C18 2.1 x 50 mm; eluents: water / acetonitrile, 0.1% formic acid
Measured parameter: RP-LC retention time (s)
Number only, in s; omit the unit.

Lab note: measured RP-LC retention time of CC(C)CC(=O)Nc1ccc(N2CCCC(C)C2)cc1C(=O)O (stereo not given) was 671

Lab note: measured RP-LC retention time of O=C(CN1c2ccccc2NC2=C(C(=O)CCC2)C1c1ccco1)Nc1ccc(F)cc1 (stereo not given) was 1070

Lab note: measured RP-LC retention time of COc1ccc(-c2nc3ccccn3c2NCc2ccccc2)cc1 was 724

Lab note: measured RP-LC retention time of CCC(C)NC(=O)c1nc(-c2ccnc(N3CCCCCC3)c2)no1 (stereo not given) was 708

Lab note: measured RP-LC retention time of COc1cccc(CN2N=C(C(=O)N3CCOCC3)S(=O)(=O)c3ccccc32)c1 was 800

Lab note: measured RP-LC retention time of Cn1nnnc1C1CCCN(S(=O)(=O)Cc2ccccc2)C1 (stereo not given) was 751

Lab note: measured RP-LC retention time of Cc1nc(N2CCN(c3ccccn3)CC2)nc2c1C(=O)CCC2 was 583

Lab note: measured RP-LC retention time of CCCn1ccc2sc(C)c(C(=O)NCC(C)C)c2c1=O was 800

Lab note: measured RP-LC retention time of Fc1ccc(-c2noc(Cc3nnc(-c4ccc(F)cc4)o3)n2)cc1 was 991

Lab note: measured RP-LC retention time of O=C(Cn1c(=O)c(S(=O)(=O)c2ccccc2)cc2ccccc21)NC1CCCCC1 was 894

Measured values drawn from the METLIN SMRT retention time set (Domingo-Almenara et al. 2019) for this set.
